The values you see were collected from PubChem BioAssay (NCI).

Tested on: SK-OV-3 ovarian
protocol.notes: NCI tumour cell line growth inhibition, 48 h
Property: GI50; scope: individual compounds

- compound: "COc1ccc2c(c1)O/C(=C\\c1cccc(OCC(=O)Nc3nc4ccccc4s3)c1)C2=O"
  GI50: "> 100 µM"
- compound: "COc1ccc(-c2cc3cccc(OC)c3c(=O)o2)cc1OC"
  GI50: "46.2 µM"
- compound: "Cn1ncc2cc(-c3cnc(N)c(Cl)c3N3CCC4(CCNC4=O)CC3)ccc21"
  GI50: "31.5 µM"
- compound: "Cc1cc(N(CCCl)CCCl)ccc1C=Nc1cccnc1"
  GI50: "7.57 µM"
- compound: "Brc1c[n+](Cc2ccc3ccccc3c2)cn1Cc1ccc2ccccc2c1"
  GI50: "2.56 µM"
- compound: "COc1ccc(C2C3=C(NC(=O)C2C#N)c2ccc4ccccc4c2OCC3)cc1 (stereo not drawn)"
  GI50: "20 µM"
- compound: "COc1cc(-c2c3c(cn2S(=O)(=O)c2ccccc2)-c2nc(N)sc2CC3)cc(OC)c1OC"
  GI50: "1.17 µM"
- compound: "CN(C(=O)C1CCCCC1)c1ccccc1I(=O)=O"
  GI50: "32.4 µM"
- compound: "O=C1c2ccn(CCCCN3CCOCC3)c2C(=O)c2c1c(O)c1ccccc1c2O"
  GI50: "16.2 µM"
- compound: "O=S(=O)(Nc1ccc(-c2nc(-c3cccc(OCCN4CCOCC4)c3)c(-c3ccnc(Br)c3)[nH]2)cc1)c1ccccc1"
  GI50: "3.81 µM"
- compound: "CCC(=O)Sc1ccccc1C(=O)Nc1ccc(Cl)cc1"
  GI50: "18.7 µM"
- compound: "OCC1SC(n2cnc3cncnc32)C(O)C1O (stereo not drawn)"
  GI50: "> 100 µM"
- compound: "C=C1C(=O)O[C@H]2[C@H]1CC/C(COC(=O)OCCCCCOC(=O)OC/C1=C/CC[C@@]3(C)O[C@H]3[C@H]3OC(=O)C(=C)[C@@H]3CC1)=C\\CC[C@@]1(C)O[C@@H]21"
  GI50: "2.93 µM"
